# target.entity: UniProt:Q1A7N1
# protocol.summary: In Vitro Canine TRPM8 Functional Assay (Ca2+ fluorescence, icilin activation)
# Type: cell-based
# setup.conditions: HEK293 cells stably expressing canine TRPM8; icilin activation; eight-point dose-response; read-out: IC50
pIC50: −log10 of the molar value.
parameter: pIC50

Worked cases, answers included:
compound: CCCCN(c1sc2ccccc2c1C)S(=O)(=O)c1ccc(C2=NOS(=O)N2)cc1 (centres unmarked) [Compound 540]
pIC50: 7.91
//
compound: Cc1c(N(CCC2CC2)S(=O)(=O)c2ccc(-c3noc(=O)[nH]3)cc2)sc2ccccc12 [Compound 613]
pIC50: 8.18
//
compound: COC(=O)c1ccc(S(=O)(=O)N(CCC(F)(F)F)c2sc3ccccc3c2C)cc1 [Compound 629]
pIC50: 7.58

I = CCCCN(c1sc2ccccc2c1C(C)(C)O)S(=O)(=O)c1ccc(C(=O)O)cc1 [Compound 343]
II = CS(=O)(=O)Nc1ccc(S(=O)(=O)N(CCCCC(F)(F)F)c2sc3ccccc3c2Br)cc1 [Compound 680]
Exercise: Would you mind telling me which has the lower recorded pIC50 between I and II ? In your reply, give the label of the chosen option.
Solution: II
(II: 7.25, I: 7.72)

a = Cc1c(N(Cc2ccc(F)c(C(F)(F)F)c2)S(=O)(=O)c2ccc(Cl)nc2)sc2ccccc12 [Compound 76]
b = O=C1CCCN1CCN(c1sc2ccccc2c1Cl)S(=O)(=O)c1ccccc1 [Compound 82]
Exercise: Select the item with the higher value of pIC50 from the options a and b listed. In your reply, give the label of the chosen option.
Solution: a
(a: 7.68, b: 6.50)

* * *

# target.entity: canine TRPM8 (Canis lupus familiaris, UniProt Q1A7N1)
# Sequence (Q1A7N1 1-1104): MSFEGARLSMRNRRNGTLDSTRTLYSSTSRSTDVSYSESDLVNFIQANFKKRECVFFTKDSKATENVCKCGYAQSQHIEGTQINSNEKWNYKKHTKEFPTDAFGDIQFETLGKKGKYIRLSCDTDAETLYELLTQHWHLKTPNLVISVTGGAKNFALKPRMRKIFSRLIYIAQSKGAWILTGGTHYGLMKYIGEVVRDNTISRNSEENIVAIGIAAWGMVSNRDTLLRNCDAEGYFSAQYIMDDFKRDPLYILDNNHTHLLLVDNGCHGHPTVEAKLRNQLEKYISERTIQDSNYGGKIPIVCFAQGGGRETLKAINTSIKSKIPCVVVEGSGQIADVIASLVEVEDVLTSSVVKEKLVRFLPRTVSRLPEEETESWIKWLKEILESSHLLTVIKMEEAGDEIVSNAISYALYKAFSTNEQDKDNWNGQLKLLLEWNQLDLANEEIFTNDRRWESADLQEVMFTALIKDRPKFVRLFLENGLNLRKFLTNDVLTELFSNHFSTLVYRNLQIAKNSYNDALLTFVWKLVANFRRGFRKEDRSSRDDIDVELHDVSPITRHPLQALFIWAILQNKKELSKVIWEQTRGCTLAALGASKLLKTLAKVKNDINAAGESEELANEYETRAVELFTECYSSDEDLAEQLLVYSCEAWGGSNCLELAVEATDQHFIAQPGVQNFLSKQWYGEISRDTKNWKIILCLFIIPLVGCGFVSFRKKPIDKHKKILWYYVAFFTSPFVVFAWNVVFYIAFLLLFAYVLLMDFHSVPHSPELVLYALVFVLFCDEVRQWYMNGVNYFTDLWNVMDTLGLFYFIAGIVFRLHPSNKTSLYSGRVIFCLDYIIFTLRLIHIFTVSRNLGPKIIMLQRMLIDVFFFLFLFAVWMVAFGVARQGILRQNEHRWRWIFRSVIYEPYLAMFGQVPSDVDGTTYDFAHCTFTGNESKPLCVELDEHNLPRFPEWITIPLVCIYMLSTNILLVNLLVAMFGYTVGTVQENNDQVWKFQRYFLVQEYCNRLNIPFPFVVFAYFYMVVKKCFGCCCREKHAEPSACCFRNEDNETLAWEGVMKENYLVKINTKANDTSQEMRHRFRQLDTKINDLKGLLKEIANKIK
# protocol.summary: In Vitro Canine TRPM8 Functional Assay (Ca2+ fluorescence, icilin activation)
# Assay type: cell-based
# setup.conditions: compound at 0.2 μM; canine TRPM8, icilin activation; read-out: % Inh @ 0.2
parameter: inhibition at 0.2 µM (%)

compound: CCCCN(c1sc2ccccc2c1Br)S(=O)(=O)c1ccc(-c2noc(=S)[nH]2)cc1
parameter: inhibition at 0.2 µM
quantity.unit: %
measured.number: 69

compound: COC(=O)c1ccc(CN(c2sc3ccccc3c2Br)S(=O)(=O)c2cccnc2)cc1
parameter: inhibition at 0.2 µM
quantity.unit: %
measured.number: 66

compound: COC(=O)c1ccc(S(=O)(=O)N(Cc2ccc(OC(F)(F)F)cc2)c2sc3ccccc3c2C2CC2)cc1
parameter: inhibition at 0.2 µM
quantity.unit: %
measured.number: 69

compound: Cc1c(N(CCC(F)(F)F)S(=O)(=O)c2ccc(C(=O)O)cc2F)sc2ccccc12
parameter: inhibition at 0.2 µM
quantity.unit: %
measured.number: 101

compound: CC(O)c1c(N(Cc2ccc(F)c(C(F)(F)F)c2)S(=O)(=O)c2ccc(C(=O)O)cc2)sc2ccccc12 (centres unmarked)
parameter: inhibition at 0.2 µM
quantity.unit: %
measured.number: 101

A = COC(=O)c1ccc(S(=O)(=O)N(CCC(F)(F)F)c2sc3ccccc3c2C)cc1
B = O=[N+]([O-])c1ccc(S(=O)(=O)N(CCC(F)(F)F)c2cc3ccccc3s2)cc1
C = CC1=C(N(CCC2CC2)S(=O)(=O)c2ccc(C(=O)O)cc2)S(=O)(=O)c2ccccc21
D = CCCNCc1c(N(Cc2ccc(F)c(C(F)(F)F)c2)S(=O)(=O)CC)sc2ccccc12
Exercise: Sort (4 compounds) by inhibition at 0.2 µM: min first. Write the labels in rank order as requested.
Solution: C, B, D, A

P = CS(=O)(=O)Nc1cccc(S(=O)(=O)N(CCC(F)(F)F)c2sc3ccccc3c2Br)c1
Q = CN(C)S(=O)(=O)c1cccc(S(=O)(=O)N(CCC(F)(F)F)c2cc3ccccc3s2)c1
Exercise: Would you mind telling me which has the lower recorded inhibition at 0.2 µM between P and Q ? In your reply, give the label of the chosen option.
Solution: Q
(Q: 30%, P: 101%)

I = CCCCN(C1=C(OC)c2ccccc2S1(=O)=O)S(=O)(=O)c1ccc(C(=O)OC)cc1
II = Cc1c(N(CCC2CC2)S(=O)(=O)c2ccc(N3CCSCC3)cc2)sc2ccccc12
Exercise: Would you mind telling me which has the lower recorded inhibition at 0.2 µM between I and II ? In your reply, give the label of the chosen option.
Solution: II
(II: 57%, I: 89%)

I = Cc1c(N(Cc2ccc(F)c(F)c2)S(=O)(=O)c2ccc(C(=O)O)cc2)sc2ccccc12
II = Cc1c(N(Cc2ccc(F)c(C(F)(F)F)c2)S(=O)(=O)c2nc3ccccc3[nH]2)sc2ccccc12
III = CCCCN(c1cc2ccccc2s1)S(C)(=O)=O
Exercise: Reorder: inhibition at 0.2 µM, max to min. Write the labels in rank order as requested.
Solution: I, II, III

A = O=S(=O)(c1ccccc1)N(Cc1ccc(F)c(C(F)(F)F)c1)c1sc2ccccc2c1CO
B = Cc1c(N(CC2CC2)S(C)(=O)=O)sc2ccccc12
Exercise: Select the item with the higher value of inhibition at 0.2 µM from the options A and B listed. In your reply, give the label of the chosen option.
Solution: A

I = CS(=O)(=O)N(Cc1ccc(F)c(F)c1)c1sc2ccccc2c1CO
II = CCN(c1sc2ccccc2c1C)S(=O)(=O)c1ccc(C(=O)O)cc1
Exercise: Would you mind telling me which has the lower recorded inhibition at 0.2 µM between I and II ? In your reply, give the label of the chosen option.
Solution: II
